All figures here come from patent US20140256756A1.

Tested on: modified version of the GPR119 receptor (94% identity to human receptor)
Experiment: cAMP production assay (LANCE cAMP kit, TR-FRET) in HEK-293 cells
Type: cell-based
Settings: increase in cAMP relative to basal levels; agonist activity if 1.5-fold or greater
Structures can show the parent of a compound that is named as a salt.
Classification field: Y = Fold over baseline at or over 3; N = Fold over baseline under 3.

These solved cases illustrate the format of a correct answer.
[
  {
    "COMPOUND": "CS(=O)(=O)c1ccc(O[C@H]2CCN(C3CCN(c4nc(-c5cnco5)ns4)CC3)C2=O)c(F)c1",
    "ANSWER LABEL": "Y"
  },
  {
    "COMPOUND": "Cc1cc(S(C)(=O)=O)cnc1N[C@H]1CCN(C2CCN(c3nc(C(C)C)ns3)CC2)C1=O",
    "ANSWER LABEL": "N"
  },
  {
    "COMPOUND": "CC(C)c1nsc(N2CCC(N3CC[C@H](Nc4ccc(S(C)(=O)=O)cc4C#N)C3=O)CC2)n1",
    "ANSWER LABEL": "N"
  },
  {
    "COMPOUND": "CS(=O)(=O)c1ccc(O[C@H]2CCN(C3CCN(c4nc(Br)ns4)CC3)C2=O)c(F)c1",
    "ANSWER LABEL": "N"
  },
  {
    "COMPOUND": "CC(C)c1nsc(N2CCC(N3CC[C@H](Nc4ccc(S(=O)(=O)CC5CC5)cc4F)C3=O)CC2)n1",
    "ANSWER LABEL": "Y"
  },
  {
    "COMPOUND": "CCS(=O)(=O)c1ccc(OC2CCN(C3CCN(c4nc(C)ns4)CC3)C2=O)c(F)c1 (stereo not drawn)",
    "ANSWER LABEL": "N"
  },
  {
    "COMPOUND": "CCS(=O)(=O)c1ccc(NC2CCN(C3CCN(c4nc(C(C)C)ns4)CC3)C2=O)cc1F (stereo not drawn)",
    "ANSWER LABEL": "Y"
  },
  {
    "COMPOUND": "CC(C)c1nsc(N2CCC(N3CC[C@H](Oc4ccc(S(C)(=O)=O)nc4)C3=O)CC2)n1",
    "ANSWER LABEL": "Y"
  },
  {
    "COMPOUND": "CC(C)c1nsc(N2CCC(N3CC[C@H](Oc4ccc(S(C)(=O)=O)cc4F)C3=O)CC2)n1",
    "ANSWER LABEL": "Y"
  },
  {
    "COMPOUND": "CS(=O)(=O)c1cc(F)c(OC2CCN(C3CCN(c4nc(-c5ccccc5)ns4)CC3)C2=O)cc1F (stereo not drawn) [Example 48, trifluoroacetate]",
    "ANSWER LABEL": "Y"
  }
]

*Q* Could you verify whether the entry `Cc1cc(N[C@H]2CCN(C3CCN(c4nc(C(C)C)ns4)CC3)C2=O)c(F)cc1S(C)(=O)=O` shows Fold over baseline of no less than 3?
*A* Y

*Q* Could you verify whether the entry `CCS(=O)(=O)c1ccc(N[C@H]2CCN(C3CCN(c4nc(C(C)C)ns4)CC3)C2=O)c(F)c1` shows Fold over baseline of no less than 3?
*A* Y

*Q* Could you verify whether the entry `CC(C)c1nsc(N2CCC(N3CC[C@H](Nc4ccc(S(C)(=O)=O)cc4F)C3=O)CC2)n1` shows Fold over baseline of no less than 3?
*A* Y

*Q* Could you verify whether the entry CC(C)Cc1nsc(N2CCC(N3CC[C@H](Nc4ccc(S(C)(=O)=O)cc4F)C3=O)CC2)n1 [Example 22, trifluoroacetate] shows Fold over baseline of no less than 3?
*A* Y

*Q* Could you verify whether the entry CC(C)c1nsc(N2CCC(N3CCC(Oc4ccc(S(C)(=O)=O)cc4)C3=O)CC2)n1 (stereo not drawn) shows Fold over baseline of no less than 3?
*A* Y
